# targetDesc: Peptide 1: Biotin-…-[Tyr(PC)]-acid
# Sequence (peptide, as listed by the source): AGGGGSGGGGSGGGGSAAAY
# assayProtocol: scFv ELISA
readoutKind: OD450 (OD450)

binder: PcOxP_DB01_B11 (scFv, V domains shown, scFv in periplasmic extract) VH: EVQLLESGGGLVQPGGSLRLSCAASGFTFEDFYMEWVRQAPGKGLEWVAASRNKANDYTTEYADSVKGRFTISRDNSKNTLYLQMNSLRAEDTAVYYCARDYFGSSYWYFDVWGQGTLVTVSS VL: DIQMTQSPSSLSASVGDRVTITCTASESLYSSKHKVHYLAWYQQKPGKAPKLLIYGASNRYHGVPSRFSGSGSGTDFTLTISSLQPEDFATYYCAQFYSYPLTFGGGTKVEIK
readoutKind: OD450
unitsText: OD450
valueMeasured: 1.11
--
binder: PcOxP_DB04_G05 (scFv, V domains shown, scFv in periplasmic extract) VH: EVQLLESGGGLVQPGGSLRLSCAASGFTFSDFYMEWVRQAPGKGLEWVAASRNKANDYTTEYADSVKGRFTISRDNSKNTLYLQMNSLRAEDTAVYYCARDFYGSSYWYFDVWGQGTLVTVSS VL: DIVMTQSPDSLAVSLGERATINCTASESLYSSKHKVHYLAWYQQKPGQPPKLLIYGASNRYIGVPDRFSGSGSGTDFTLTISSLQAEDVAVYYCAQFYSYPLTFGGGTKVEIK
readoutKind: OD450
unitsText: OD450
valueMeasured: 1.2
--
binder: PcOxP_DB02_D02 (scFv, V domains shown, scFv in periplasmic extract) VH: EVQLLESGGGLVQPGGSLRLSCAASGFTFSDYYMEWVRQAPGKGLEWVAASRNKANDYTTEYADSVKGRFTISRDNSKNTLYLQMNSLRAEDTAVYYCARDYYGSSYWYFDTWGQGTLVTVSS VL: DIVMTQSPDSLAVSLGERATINCTSSESVYSSSHKVHYLAWYQQKPGQPPKLLIYGASNRYIGVPDRFSGSGSGTDFTLTISSLQAEDVAVYYCAQFYYYPLTFGGGTKVEIK
readoutKind: OD450
unitsText: OD450
valueMeasured: 0.16

Cited source: patent US20250320312A1
